# assay-remarks: passive permeability, PAMPA, ADME assay (AID 1508612)
# experimental-parameters: pH 7.4, 30.0 min, 50.0 µM
Form field: Papp (one value per entry).
A number alone suffices; assume nm/s.

Reference set (3 entries):
Which measured Papp value corresponds to CCc1cccc(NC(=O)C(Cc2ccccc2)NS(=O)(=O)c2cccs2)c1 (stereo not given) ? 8870

Another compound to check: `CSc1nc(N)cc(Oc2ccc(-c3nc(Nc4cccc(C(F)(F)F)c4)n[nH]3)cc2)n1` 6330

What do you have for `Cc1cc(SCc2sc(-c3ccc(C(F)(F)F)cc3)nc2C)ccc1OCC(=O)O` ? 5200

Next:
Record request: Papp value, item Cc1cc(C)nc(N2CCCC(C(=O)NCCc3ccc(F)cc3)C2)n1 (stereo not given) 622
